Target: AVP-V2 sites (Rattus norvegicus, UniProt Q00788)
Construct: male rat liver (AVP-V1 sites) or kidney medulla (AVP-V2 sites); from tissue; host or cells: male rat kidney medulla, crude membranes
Sequence (Q00788 whole entry): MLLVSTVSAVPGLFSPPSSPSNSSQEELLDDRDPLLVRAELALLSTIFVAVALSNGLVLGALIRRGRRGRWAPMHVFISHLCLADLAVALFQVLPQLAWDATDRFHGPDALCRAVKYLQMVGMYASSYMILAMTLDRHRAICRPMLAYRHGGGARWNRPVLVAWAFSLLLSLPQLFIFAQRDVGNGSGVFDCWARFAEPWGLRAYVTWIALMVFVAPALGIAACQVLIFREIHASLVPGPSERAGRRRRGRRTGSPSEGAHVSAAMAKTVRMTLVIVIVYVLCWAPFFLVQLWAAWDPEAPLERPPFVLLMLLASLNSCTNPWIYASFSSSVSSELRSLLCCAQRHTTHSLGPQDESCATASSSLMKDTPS
Assay: [^3 H]AVP binding to crude membrane preparation of male rat kidney medulla (AVP-V2 sites)
Conditions: read-out: Receptor Binding Results IC50 (nM) [^3 H]-AVP-V2
Protocol: Nonspecific binding (5-10% of the total binding) was determined using 10 μM unlabeled AVP, and the binding reaction was terminated by filtration as described above for the [^3 H]OT binding assay.
Numbered stars: 1 amine (or outer) side, 2 acyl side, 3 side chain; on linkers, the order of the positions; unused ones are H or OH. Square brackets hold non-standard residues; d marks the D form. Peptide text beside a SMILES is read from it. X4 = O=C([C@@H](Cc1cn(COCc2ccccc2)cn1)N[*:1])[*:2]; dPiz(1,6-dehydro) = O=C(O)[C@H]1CCC=NN1; dNMehPhe = CN[C@H](CCc1ccccc1)C(=O)O; dNMeY = CN[C@H](Cc1ccc(O)cc1)C(=O)O; NMeI = CC[C@H](C)[C@H](NC)C(=O)O; Pip(4-aza) = O=C(O)[C@@H]1CNCCN1; X6 = O=C([C@H]1CCCNN1[*:1])[*:2]; dNMeF = CN[C@H](Cc1ccccc1)C(=O)O; Pip = O=C(O)[C@@H]1CCCCN1; dPip = O=C(O)[C@H]1CCCCN1
Measured IC50 by item

| COMPOUND | QUALIFIER SYMBOL | IC50 / nM |
| --- | --- | --- |
| CC[C@H](C)[C@@H]1NC(=O)[C@@H](Cc2ccccc2)NC(=O)[C@@H]2CCCN2C(=O)[C@@H](Cc2c[nH]cn2)NC(=O)[C@@H]2CCCCN2C(=O)[C@H]2CCCNN2C1=O [Example 14] (cyclo(I[X6][Pip][dH]P[dF])) | > | 10000 |
| CC[C@H](C)[C@@H]1NC(=O)[C@@H](Cc2c[nH]c3ccccc23)NC(=O)[C@@H]2CCCN2C(=O)[C@@H](Cc2cn(COCc3ccccc3)cn2)NC(=O)[C@@H]2CNCCN2C(=O)[C@H]2CCCCN2C1=O [Example 177] (cyclo([dW]I[dPip][Pip(4-aza)][X4]P)) | = | 12000 |
| CC[C@H](C)[C@@H]1NC(=O)[C@@H](Cc2c[nH]c3ccccc23)NC(=O)[C@@H]2CCCN2C(=O)[C@@H](Cc2ccc(O)cc2)N(C)C(=O)[C@@H]2CCCCN2C(=O)[C@H]2CCCCN2C1=O [Example 137] (cyclo(I[dPip][Pip][dNMeY]P[dW])) | = | 245 |
| CN1C(=O)[C@@H]2CCCCN2C(=O)[C@H]2CCCCN2C(=O)[C@H](Cc2ccccc2)NC(=O)[C@@H](Cc2c[nH]c3ccccc23)NC(=O)[C@@H]2CCCN2C(=O)[C@H]1Cc1ccccc1 [Example 134] (cyclo(F[dPip][Pip][dNMeF]P[dW])) | = | 8000 |
| CC[C@H](C)[C@@H]1NC(=O)[C@@H](Cc2ccccc2)NC(=O)[C@@H]2CCCN2C(=O)[C@@H](Cc2ccccc2)N(C)C(=O)[C@@H]2CCCCN2C(=O)[C@H]2CCC=NN2C1=O [Example 112] (cyclo(I[dPiz(1,6-dehydro)][Pip][dNMeF]P[dF])) | = | 1170 |
| CC[C@H](C)[C@@H]1NC(=O)[C@@H](Cc2ccccc2)NC(=O)[C@@H]2CCCN2C(=O)[C@@H](Cc2c[nH]c3ccccc23)NC(=O)[C@@H]2CCCCN2C(=O)[C@H]2CCCCN2C1=O [Example 25] (cyclo(I[dPip][Pip][dW]P[dF])) | = | 3900 |
| CC[C@H](C)[C@H]1C(=O)N2CCCC[C@@H]2C(=O)N2CCCC[C@H]2C(=O)N(C)[C@H](Cc2ccccc2)C(=O)N2CCC[C@H]2C(=O)N(C)[C@H](CCc2ccccc2)C(=O)N1C [Example 166] (cyclo([NMeI][dPip][Pip][dNMeF]P[dNMehPhe])) | > | 3000 |

Numbers sourced from patent US5225528A.
